Readings of glycan array binding signal (z-score) for the listed binders
tgt: Neu5Ac(a2-3)Gal(b1-3)GlcNAc(b1-3)Gal(b1-3)GlcNAc
procedure text: glycan array binding signal (z-score within array); higher = stronger binding
conditions: glycan notation: IUPAC condensed, linker removed
Shown is part of a subset that was picked to be rich in the strongest signals.

# binder, glycan array binding signal (z-score)
rows = [
    ("AMA (Arum maculatun) (protein) MAKLLLLLLLPAIVGLAVPRSAAAVGSNYMLSGETLNTDGRLTNGELTLIMQVDCNLVLYHGGWQSNTANNGRDCKLTLTDFGELVIKSGTGSTVWSSGSKQSMKGNYAAVVHPEGRLVIYGPSVFKINPSGAGLNGLPLRNIPLTNNMLFSGQVLYGDGTLSARNHKLVMQGDCNMVLYGGKYGWQSNTHGNGKYCFAMLTHKGELVIRDDDFKSVWSSKSSSKQGDYVFILQDDSLAIIYGPAVFSTGSKKMISMVTN", -0.204),
    ("Morniga (Morus nigra) (protein) MAGTSTNTQTTGTSQTVEVGLWGGPGGNAWDDGSYTGIREINLSHGDAIGAFSVIYDLNGQPFTGPTHPGNEPSFKTVKITLDFPNEFLVSVSGYTGVLPRLATGKDVIRSLTFKTNKKTYGPYGKEEGTPFSLPIENGLIVGFKGRSGFVVDAIGVHLS", -0.332),
    ("Gal 4 (Mus musculus), P56470 (protein) MAYVPAPGYQPTYNPTLPYYQPIPGGLNVGMSVYIQGVASEHMKRFFVNFVVGQDPGSDVAFHFNPRFDGWDKVVFNTLQGGKWGSEERKRSMPFKKGAAFELVFIVLAEHYKVVVNGNPFYEYGHRLPLQMVTHLQVDGDLQLQSINFIGGQPLRPQGPPMMPPYPGPGHCHQQLNSLPTMEGPPTFNPPVPYFGRLQGGLTARRTIIIKGYVPPTGKSFAINFKVGSSGDIALHINPRMGNGTVVRNSLLNGSWGSEEKKITHNPFGPGQFFDLSIRCGLDRFKVYANGQHLFDFAHRLSAFQRVDTLEIQGDVTLSYVQI", 0.107),
    ("PILRa (Homo sapiens), Q9UKJ1 (protein) MGRPLLLPLLPLLLPPAFLQPSGSTGSGPSYLYGVTQPKHLSASMGGSVEIPFSFYYPWELATAPDVRISWRRGHFHRQSFYSTRPPSIHKDYVNRLFLNWTEGQKSGFLRISNLQKQDQSVYFCRVELDTRSSGRQQWQSIEGTKLSITQAVTTTTQRPSSMTTTWRLSSTTTTTGLRVTQGKRRSDSWHISLETAVGVAVAVTVLGIMILGLICLLRWRRRKGQQRTKATTPAREPFQNTEEPYENIRNEGQNTDPKLNPKDDGIVYASLALSSSTSPRAPPSHRPLKSPQNETLYSVLKA", -0.15),
    ("GSL-I (Griffonia simplicifolia) (protein) FNLPNFWSDVKDNIIFQGDANTTAGTLQLCKTNQYGNPLQYRAGRALYSDPVQLWDNKTGSVASFYTEFTFFLKITGDGPADGLAFFLAPPDSDVKDAGAYLGLFNKSTATQPSKNQVVAVEFDTWKNTDFPEPSYRHIGINVNSIVSVATKRWEDSDIFSGKIATARISYDGSAKILTVVLSYPDGADYILSHSVDLSKNLPNPIRVGISASTGANQFLTVYVLSWRFSSALQSTSVNAAMGPEIIRTVV", -0.152),
    ("Cohesin-marm-DC-ASGPR-CRD (protein) LDITSHHHHHHDDLDAVRIKVDTVNAKPGDTVRIPVRFSGIPSKGIANCDFVYSYDPNVLEIIEIEPGDIIVDPNPDKSFDTAVYPDRKIIVFLFAEDSGTGAYAITKDGVFATIVAKVKEGAPNGLSVIKFVEVGGFANNDLVEQKTQFFDGGVNVGDTTEPATPTTPVTTPTTTDDLDAASCPINWVEHQGSCYWFSRSGKTWPEAERYCQLENTHLVVINSREEQNFVQAHLGSAYTWMGLSDPEGVWKWVDGTDYSSGFQNWKPGQPDDWQGHGLGGGEDCAHFHPDGRWNDDVCQRSYHWVCEAGLTQASQDSH", -0.433),
    ("EUL D1A first (Oryza sativa) (protein) MFGFGHHHNQAPAAPSDPNQIFKIFCRANENYCLTVRDSAVVLAPVNPKDEHQHWFKDMRFSTKVKDGEGMPAFALVNKATGLAVKHSLGQSHPVKLVPFNPEYEDASVLWTESKDVGKGFRCIRMVNNTRLNLDAFHGDKDHGGVRDGTTVVLWEWCKGDNQSWKILPWGPEAHSSSPGAATILEQKLISEEDLNSAVDHHHHHH", 0.506),
    ("CD23 (Homo sapiens) (protein) MELQVSSGFVCNTCPEKWINFQRKCYYFGKGTKQWVHARYACDDMEGQLVSIHSPEEQDFLTKHASHTGSWIGLRNLDLKGEFIWVDGSHVDYSNWAPGEPTSRSQGEDCVMMRGSGRWNDAFCDRKLGAWVCDRLATCTPPASEGSAESMGPDSRPDPDGRLPTPSAPLHS", -0.189),
    ("Mannose Binding Protein (Lactobacillus plantarum) (protein) AERSEAALTHVDKDNFLKYFSLNGSATYDAKTGIVTITPNQNNQVGNFSLTSKIDMNKSFTLTGQVNLGSNPNGADGIGFAFHSGNTTDVGNAGGNLGIGGLQDAIGFKLDTWFNSYQAPSSDKNGSEISSTNSNGFGWNGDSANAPYGTFVKTSNQEISTANGSKVQRWWAQDTGESQALSKADIDGNFHDFVVNYDGATRTLTVSYTQASGKVLTWKTTVASSYQAMAMVVSASTGAAKNLQQFKLTSFDFQEAATVNVKYVDTTGHQLAQG", -0.526),
    ("KISKRILTGKK [NK11 (Sus scrofa)]", -0.342),
]
